# EXPERIMENT_DESCRIPTION: logP determination (acidic, HCOOH)
# Type: physicochemical
# MEASUREMENT_PARAMETERS: hcooh; read-out: Phys. Daten = logP (HCOOH)
Here the recorded logP is given for each entry.
ASSAY_READOUT: logP

COMPOUND: OCCNC(=S)NC1CCCc2sccc21 (stereo not shown)
ASSAY_READOUT: logP
VALUE_MEASURED: 1.7

COMPOUND: C[C@H](NC(=S)NCCO)c1cccs1
ASSAY_READOUT: logP
VALUE_MEASURED: 1.3

COMPOUND: OCCNC(=S)NC1CCCc2occc21 (stereo not shown)
ASSAY_READOUT: logP
VALUE_MEASURED: 1.4

COMPOUND: OCCNC(=S)NC1CCc2ccsc21 (stereo not shown)
ASSAY_READOUT: logP
VALUE_MEASURED: 1.47

###

Below is a list of entries, each paired with its recorded logP value.
# EXPERIMENT_DESCRIPTION: logP determination (acidic, HCOOH)
# Assay type: physicochemical
# MEASUREMENT_PARAMETERS: sauer; read-out: logP (sauer)

COMPOUND: OCCNC(=S)NC1CCc2ccsc21 (stereo not shown) [II-1]
logP: 1.47
//
COMPOUND: CC(C)c1cs/c(=N\C2CCCc3occc32)n1CCO (stereo not shown) [I-2]
logP: 1.23
//
COMPOUND: OCCNC(=S)NC1CCCc2occc21 (stereo not shown) [II-2]
logP: 1.4
//
COMPOUND: CC(C)c1cs/c(=N\C2CCc3ccsc32)n1CCO (stereo not shown) [I-1]
logP: 1.19

###

# EXPERIMENT_DESCRIPTION: logP determination (acidic, HCOOH)
# Assay type: physicochemical
# MEASUREMENT_PARAMETERS: acidic (HCOOH); read-out: Phys. Daten = logP (HCOOH)

MOLECULE: CC(C)c1cs/c(=N\C2CCCc3occc32)n1CCO (centres unmarked) [I-2]
logP: 1.23

MOLECULE: CC(C)c1cs/c(=N\C2CCc3ccsc32)n1CCO (centres unmarked) [I-1]
logP: 1.19
